Test system: Huh-7 cells persistently infected with the HCV subgenomic replicon
method description: Replicon Assay (Example B), Alamar Blue cytotoxicity CC50
Assay type: cell-based
test context: lower value of the cell pair
parameter measured: CC50

Prompt: Given the entry CCC(NC1CCCC1C(N)=O)c1ccc(Cl)c(C(=O)c2ccc(N)nc2)c1F (racemic) , what CC50 was observed with Huh-7 cells persistently infected with the HCV subgenomic replicon?
Response: > 3000 nM

* * *

Readings of inhibition at 0.03 µM for the listed compounds
target entity: full length NS3/4a (Hepatitis C virus genotype 1b (isolate BK) (HCV))
method description: NS3 Protease Assay (Example A), FRET-based
Assay type: biochemical
test context: @ 0.03 uM
Write the number in % without appending the unit.

// below: answered compounds
compound | unit info | measured result
CC[C@H](N[C@@H](C)CC(=O)NCCN)c1ccc(Cl)c(C(=O)c2ccccc2)c1F [Example 89] | % | 54
C[C@@H](CC(N)=O)N[C@@H](c1ccc(Cl)c(C(=O)c2ccc(F)cc2)c1F)C1CC1 [Example 121] | % | 38
C[C@@H](CC(N)=O)N[C@@H](c1ccc(Cl)c(C(=O)c2ccc(C#N)cc2)c1F)C1CC1 [Example 129] | % | 36
CC[C@@H](N)c1ccc(Cl)c(C(=O)c2ccc(C#N)c(OC)c2)c1F [Example 222] | % | 45

Prompt: Return reported inhibition at 0.03 µM; argument: CC[C@@H](N[C@@H](C)CC(=O)NCCN)c1ccc(Cl)c(C(=O)c2ccc(N)nc2)c1F [Example 240]
Response: 48

* * *

Reported IC50 is given for each of the following compounds.
target entity: full length NS3/4a (Hepatitis C virus genotype 1b (isolate BK) (HCV))
method description: NS3 Protease Assay (Example A), FRET-based
Type: biochemical
test context: HCV NS3 protease assay, full length NS3/4a; read-out: Assay A IC50 (μM) average
Method: The HCV NS3 protease functions have been extensively studied and are considered as potential targets for antiviral therapy: see for example the many references listed in the introductory section of this application. Therefore, the activity of the compounds of the invention as anti-HCV agents was assessed using a full length HCV NS3 protease. […]
Give me the value, and tack the unit on after it.

Some solved cases for reference:
cpd smiles | target entity | measured result
CC[C@@H](N[C@@H](C)CC(N)=O)c1ccc(Cl)c(C(=O)c2ccc(F)cc2)c1F | full length NS3/4a (Hepatitis C virus genotype 1b (isolate BK) (HCV)) | 0.047 µM
CC[C@@H](N)c1ccc(Cl)c(C(=O)c2ccc(N)nc2)c1F | full length NS3/4a (Hepatitis C virus genotype 1b (isolate BK) (HCV)) | 0.089 µM
Nc1cnc(C(=O)c2c(Cl)ccc([C@H](N)C3CC3)c2F)cn1 | full length NS3/4a (Hepatitis C virus genotype 1b (isolate BK) (HCV)) | 0.6 µM

As a next step, examine the compound that follows.
Prompt: Would you kindly share the measured IC50 for CC[C@@H](N[C@@H](C)CC(N)=O)c1ccc(Cl)c(C(=O)c2ccccn2)c1F ?
Response: 0.24 µM

* * *

target entity: full length NS3/4a (Hepatitis C virus genotype 1b (isolate BK) (HCV), UniProt P26663)
Sequence (P26663 1027-1657): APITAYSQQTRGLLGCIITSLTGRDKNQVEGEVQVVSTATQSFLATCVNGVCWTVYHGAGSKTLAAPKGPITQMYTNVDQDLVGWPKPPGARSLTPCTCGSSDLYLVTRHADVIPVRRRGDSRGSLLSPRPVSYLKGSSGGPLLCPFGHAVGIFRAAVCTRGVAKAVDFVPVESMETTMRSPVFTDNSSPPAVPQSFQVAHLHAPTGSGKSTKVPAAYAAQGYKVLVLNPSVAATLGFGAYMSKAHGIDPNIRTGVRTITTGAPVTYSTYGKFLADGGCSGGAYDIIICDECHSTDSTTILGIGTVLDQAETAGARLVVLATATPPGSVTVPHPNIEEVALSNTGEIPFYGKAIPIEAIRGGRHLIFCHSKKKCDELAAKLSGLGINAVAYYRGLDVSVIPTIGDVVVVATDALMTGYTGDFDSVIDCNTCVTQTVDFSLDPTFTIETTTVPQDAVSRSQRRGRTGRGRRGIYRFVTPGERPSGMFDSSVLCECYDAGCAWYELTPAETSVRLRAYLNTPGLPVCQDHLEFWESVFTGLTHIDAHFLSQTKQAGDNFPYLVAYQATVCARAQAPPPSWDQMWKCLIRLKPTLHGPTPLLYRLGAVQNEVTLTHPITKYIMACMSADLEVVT
method description: NS3 Protease Assay (Example A), FRET-based
Type: biochemical
test context: HCV NS3 protease assay, full length NS3/4a; read-out: Assay A IC50 (μM) average
Experimental: The HCV NS3 protease functions have been extensively studied and are considered as potential targets for antiviral therapy: see for example the many references listed in the introductory section of this application. Therefore, the activity of the compounds of the invention as anti-HCV agents was assessed using a full length HCV NS3 protease. […]
Label key: criterion met means IC50 under 0.5 µM; criterion not met means IC50 of 0.5 µM or more.

# count of solved cases: 7
cpd smiles | target entity | cat
CC[C@@H](N[C@@H](C)c1cnc[nH]1)c1ccc(Cl)c(C(=O)c2cccnc2)c1F | full length NS3/4a (Hepatitis C virus genotype 1b (isolate BK) (HCV), UniProt P26663) | criterion not met
CCC[C@@H](N[C@@H](C)CC(N)=O)c1ccc(Cl)c(C(=O)c2ccc(N)nc2)c1F | full length NS3/4a (Hepatitis C virus genotype 1b (isolate BK) (HCV), UniProt P26663) | criterion met
CC[C@@H](N[C@H](C)CC(N)=O)c1ccc(Cl)c(C(=O)c2ccc(N)c(C#N)c2)c1F | full length NS3/4a (Hepatitis C virus genotype 1b (isolate BK) (HCV), UniProt P26663) | criterion met
COc1cc(C(=O)c2c(Cl)ccc([C@H](N[C@@H](C)CC(N)=O)C3CC3)c2F)ccc1C#N | full length NS3/4a (Hepatitis C virus genotype 1b (isolate BK) (HCV), UniProt P26663) | criterion met
C[C@H](CC(N)=O)N[C@@H](c1ccc(Cl)c(C(=O)c2ccc(CO)cc2)c1F)C1CC1 | full length NS3/4a (Hepatitis C virus genotype 1b (isolate BK) (HCV), UniProt P26663) | criterion not met
CC[C@@H](N[C@@H](C)CC(N)=O)c1ccc(Cl)c(C(=O)c2cccc(CO)c2)c1F | full length NS3/4a (Hepatitis C virus genotype 1b (isolate BK) (HCV), UniProt P26663) | criterion met
C[C@H](CC(N)=O)N[C@@H](c1ccc(Cl)c(C(=O)c2ccc(N)c(C#N)c2)c1F)C1CC1 | full length NS3/4a (Hepatitis C virus genotype 1b (isolate BK) (HCV), UniProt P26663) | criterion met

Prompt: Just wondering, is IC50 of CC[C@@H](NC(C)(C)CC(N)=O)c1ccc(Cl)c(C(=O)c2cccnc2)c1F below 0.5 µM?
Response: criterion met

* * *

target entity: full length NS3/4a (Hepatitis C virus genotype 1b (isolate BK) (HCV), UniProt P26663)
method description: NS3 Protease Assay (Example A), FRET-based
Type: biochemical
test context: read-out: IC50 against the protease activity of the full length NS3/4a
pIC50: −log10 of the molar value.
Reported pIC50 values follow for various molecules

Some solved entries appear below for comparison.
molecule | pIC50
CC[C@@H](N[C@H](C)CC(N)=O)c1ccc(Cl)c(C(=O)c2ccnc(N)c2)c1F [Example 206] | 5.30 to 6.00
CC[C@@H](N)c1ccc(Cl)c(C(=O)c2nccs2)c1F [Example 20] | > 6.00
CC[C@@H](N[C@@H](C)CC(N)=O)c1ccc(Cl)c(C(=O)c2cccc(C(=O)O)c2)c1F [Example 122] | 5.30 to 6.00

Prompt: pIC50 lookup needed for CC[C@@H](N)c1ccc(Cl)c(C(=O)c2ccccn2)c1F [Example 14] , thanks.
Response: 5.30 to 6.00

* * *

Below, each of the compounds is paired with its reported CC50 at 72 h value.
method description: Replicon Assay (Example B), Alamar Blue cytotoxicity CC50
Format: cell-based
test context: human, lower value of the cell pair

The examples below pair each entry with its known result.
compound | CC50 at 72 h
CC[C@@H](N[C@@H](C)CC(N)=O)c1ccc(Cl)c(C(=O)c2ccc(=O)[nH]c2)c1F [Example 147] | > 10 µM
CC[C@H](NC(C)(C)CC(N)=O)c1ccc(Cl)c(C(=O)c2ccc(N)nc2)c1F [Example 251] | > 1 µM
CC[C@@H](N[C@@H](C)CC(N)=O)c1ccc(Cl)c(C(=O)c2ccc(N)cn2)c1F [Example 149] | > 10 µM
CC[C@@H](N[C@@H](C)CC(N)=O)c1ccc(Cl)c(C(=O)c2cccc(O)c2)c1F [Example 227] | > 3 µM
CC[C@@H](N[C@@H](C)CC(N)=O)c1ccc(Cl)c(C(=O)c2ccccn2)c1F [Example 104] | > 3 µM
CC[C@H](N[C@H](C)CO)c1ccc(Cl)c(C(=O)c2ccc(N)nc2)c1F [Example 178] | > 3 µM

Prompt: // lookup CC50 at 72 h for [2H]C([2H])([2H])C([2H])([2H])[C@@H](N[C@@H](C)CC(N)=O)c1ccc(Cl)c(C(=O)c2ccc(N)nc2)c1F [Example 265]
Response: > 3 µM

Prompt: Which CC50 at 72 h value belongs to CCC(NC(C)(C)CO)c1ccc(Cl)c(C(=O)c2ccccc2)c1F (stereo not shown) [Example 179] ?
Response: > 3 µM

Prompt: Entry CC[C@@H](N[C@@H](C)CC(N)=O)c1ccc(Cl)c(C(=O)c2ccncc2)c1F [Example 106] : reported CC50 at 72 h = ?
Response: > 3 µM

Prompt: Param item = C[C@@H](CC(N)=O)N[C@@H](c1ccc(Cl)c(C(=O)c2ccc3c(c2)OCC(=O)N3)c1F)C1CC1 [Example 270] ; retrieve measured CC50 at 72 h.
Response: > 3 µM

Prompt: Form field: reported CC50 at 72 h of CC[C@@H](N[C@@H](C)CC(N)=O)c1ccc(Cl)c(C(=O)c2cccc(F)c2)c1F [Example 95]
Response: > 3 µM

Prompt: So what does the record say about CC50 at 72 h for C[C@@H](CC(N)=O)N[C@@H](c1ccc(Cl)c(C(=O)c2ccccc2)c1F)C1CC1 [Example 103] ?
Response: > 3 µM

Prompt: Find the recorded CC50 at 72 h belonging to CC[C@@H](N[C@@H](C)CC(N)=O)c1ccc(Cl)c(C(=O)c2ccc3c(c2)OCC(=O)N3)c1F [Example 247] and report it.
Response: > 1 µM

Prompt: Recorded CC50 at 72 h for CC[C@@H](N[C@@H](C)CC(N)=O)c1ccc(Cl)c(C(=O)c2ccc(-n3cccn3)nc2)c1F [Example 139] , please?
Response: > 3 µM

Data provenance is patent US9145354B2.
